Experiment: PSAC antagonists in infected red cells, primary screen, cell-based, P. falciparum Indochina, OD700, 2 h (AID 1155);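 note: lysis reports solute entry through the parasite surface anion channel PSAC; channel blockers reduce lysis of infected cells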
Settings: P. falciparum Indochina infected erythrocytes, osmotic lysis OD700, called active from +8 up or from −8 down
Activity calls are given as the source filed them.
Result category, one only: Yes (active), No (inactive)

[[record]]
compound = "Cc1ccc(S[C@]2(C(=O)NC(C)C)CC(=O)N(C3Cc4ccccc4C3)[C@@H]2c2ccc(CO)cc2I)cc1"
group_label = "No"

[[record]]
compound = "NC(=O)NCC#Cc1ccc2c(c1)[C@]1(C(=O)N2)[C@H](C(=O)Nc2nc3ccccc3s2)[C@H]2C(=O)O[C@H](c3ccccc3)[C@H](c3ccccc3)N2[C@@H]1c1ccc(O)cc1"
group_label = "No"

[[record]]
compound = "CCOc1cc(C(O)C2C=CC3C(=O)N(C4CCCCC4)C(=O)C3N2Nc2ccc(OC)cc2)ccc1O (configuration not stated)"
group_label = "No"


**Query** Could you kindly confirm the outcome this assay logged for [N-]=[N+]=Nc1ccccc1[C@H]1OC(c2ccc(OCCCO)cc2)=N[C@@]1(CCS(=O)(=O)c1ccccc1)C(=O)N1CCCCC1 ?
**Result** Yes

**Query** So what was the verdict on COC(=O)C1(Cc2ccccc2)C=C2C(=C(c3ccccc3)C(=O)C2C)CN1 (configuration not stated) in this test?
**Result** No

**Query** # outcome recorded in this test, key = CC(C)C[C@@H]1NC(=O)[C@H]2C[C@@H](C(=O)NCCCCCC[N+](C)(C)C)[C@@H](c3cccc(OCCO)c3)N2C1=O
**Result** No

**Query** Hi team, can someone confirm the assay call for O=C1O[C@@H](c2ccccc2)[C@@H](c2ccccc2)N2[C@@H](c3ccc(O)cc3)[C@]3(C(=O)Nc4ccc(C#CCCO)cc43)[C@@H](C(=O)NC[C@H](O)c3ccccc3)[C@H]12 ?
**Result** No

**Query** Hi, do you know how COCCOC(=O)N1C(=O)[C@@]2(c3cc(C#CC4(O)CCCCCC4)ccc31)[C@H](C(N)=O)[C@H]1C(=O)O[C@H](c3ccccc3)[C@H](c3ccccc3)N1[C@@H]2c1ccc(O)cc1 came out in this test?
**Result** No
